Tested on: promastigotes of Leishmania donovani strain (MHOM/IN/90/GE1F8R)
Assay overview: alamarBlue activity against promastigotes of L. donovani
Type: cell-based
Assay setup: selectivity index CC50/IC50 (macrophages J744A.1 vs parasite)
Attribute measured: Promastigotes L. donovani SI
// keep it numeric: no unit symbol after the value

## Input Give the measured Promastigotes L. donovani SI of CCCCCCCCCCCCCCCCOP(=O)([O-])OCC[N+](C)(C)C [Miltefosine, reference compound] .
## Output 21.74

## Input Request the reported Promastigotes L. donovani SI associated with C=C1C[C@@H]2OC(=O)C(=C)[C@H]2[C@H](O)/C=C(\C)CCC1=O
## Output 5.65

## Input Request the reported Promastigotes L. donovani SI associated with C=C1C(=O)O[C@@H]2[C@H]3C(C)=CC[C@@H](O)[C@]3(C)CC[C@@H]12
## Output 6.35

## Input Fill in the blank: the reported Promastigotes L. donovani SI of C=C1C(=O)O[C@H]2CC(=C)[C@H]3CCC(=C)[C@@H](O3)[C@@H](O)[C@H]12 [Dehydroxyisobadgerin (9), dehydroxyisobadgerin] is ____.
## Output 1.47

## Input Which Promastigotes L. donovani SI value belongs to C=C1C(=O)OC2C=C(C)CCC=C(COC(C)=O)CCC12 (mixture of isomers) [cis,trans-costunolide-14-acetate (3), cis,trans-costunolide-14-acetate] ?
## Output 9.43

====

For each record, write down the corresponding pIC50.
Test system: epimastigotes of Trypanosoma cruzi (Y strain)
Assay overview: alamarBlue activity against epimastigotes of T. cruzi
Type: cell-based
Assay setup: Trypanosoma cruzi; 72 h of incubation; mean with standard deviation
Scale explanation: pIC50 corresponds to minus log10 of a concentration expressed in moles per litre.

## Input For the compound shown here, C=C1C(=O)O[C@H]2CC(=C)[C@H]3CCC(=C)[C@@H](O3)[C@@H](O)[C@H]12 [Dehydroxyisobadgerin (9), dehydroxyisobadgerin] , give the reported pIC50.
## Output 4.22

## Input Name the reported pIC50 value associated with the compound C=C1C(=O)OC2C=C(C)CCC=C(COC(C)=O)CCC12 (mixture of isomers) [cis,trans-costunolide-14-acetate (3), cis,trans-costunolide-14-acetate]
## Output 5.05

## Input Fill in: pIC50 of C=C1CC[C@@H](O)[C@]2(C)CC[C@H]3C(=C)C(=O)O[C@@H]3[C@@H]12 [Reynosin (13), reynosin] is ___
## Output 4.23

## Input Any idea what its pIC50 is? The compound is C=C1CCC2C(=C)C(=O)OC2C=C(C)CCC1O (stereo not shown) [Artemorin (1), artemorin]
## Output 4.09

## Input Entry C=C1CCC2C(=C)C(=O)OC2C=C(C)CCC1=O (stereo not shown) [Anhydroartemorin (2), anhydroartemorin] has what pIC50?
## Output 4.89

## Input pIC50 lookup needed for C=C1C(=O)O[C@@H]2[C@H]3C(C)=CC[C@@H](O)[C@]3(C)CC[C@@H]12 [Santamarine (12), santamarine] , thanks.
## Output 5.01

====

Assay overview: alamarBlue cytotoxicity on murine macrophages
Type: cell-based
Assay setup: mouse, J774A.1 macrophages; 24 h of incubation; read-out: Macrophages J744A.1 CC50
Answer each item with its documented CC50 at 24 h.

## Input Returns the measured CC50 at 24 h for the input molecule. Input: CCCCCCCCCCCCCCCCOP(=O)([O-])OCC[N+](C)(C)C [Miltefosine, reference compound]
## Output 72.2 µM

## Input Query: CC50 at 24 h; subject: O=C(Cn1ccnc1[N+](=O)[O-])NCc1ccccc1 [Benznidazole, reference compound]
## Output > 1540 µM

## Input Entry under review: C=C1CCC2C(=C)C(=O)OC2C=C(C)CCC1O (stereo not shown) [Artemorin (1), artemorin] . Reported CC50 at 24 h?
## Output > 403 µM

## Input Bench note: what CC50 at 24 h did C=C1C(=O)O[C@@H]2[C@@H]3[C@@](C)(CC[C@@H]12)[C@H](O)CC[C@]3(C)O [4b-Hydroxyarbusculin A (11), 4β-hydroxyarbusculin A] show?
## Output > 403 µM

====

Test system: promastigotes of Leishmania amazonensis strain (MHOM/BR/77/LTB0016)
Assay overview: alamarBlue activity against promastigotes of L. amazonensis
Type: cell-based
Assay setup: Leishmania amazonensis; 72 h of incubation; mean with standard deviation
Could you please report measured pIC50 for the items listed next?
Reminder that pIC50 is minus the log10 of a molar concentration.

## Input promastigotes of Leishmania amazonensis strain (MHOM/BR/77/LTB0016) / pIC50 / C=C1C[C@@H]2OC(=O)C(=C)[C@H]2[C@H](O)/C=C(\C)CCC1=O [Tamirin (7), Tamirin] : value?
## Output 4.93

## Input Give the reported pIC50 for C=C1C(=O)OC2C=C(C)CCC=C(COC(C)=O)CCC12 (mixture of isomers) [cis,trans-costunolide-14-acetate (3), cis,trans-costunolide-14-acetate] (system: promastigotes of Leishmania amazonensis strain (MHOM/BR/77/LTB0016)).
## Output 5.06

====

Test system: promastigotes of Leishmania amazonensis strain (MHOM/BR/77/LTB0016)
Assay overview: alamarBlue activity against promastigotes of L. amazonensis
Type: cell-based
Assay setup: Leishmania amazonensis; 72 h of incubation; mean with standard deviation
Attribute measured: IC50 (µM)
Give the value in µM but do not write µM after it.

## Input What measured IC50 goes with C=C1CCC2C(=C)C(=O)OC2C=C(C)CCC1=O (stereo not shown) [Anhydroartemorin (2), anhydroartemorin] ?
## Output 25.6

## Input Sample C=C1CCC2C(=C)C(=O)OC2C=C(C)CCC1O (stereo not shown) — what was its IC50?
## Output 40.9

## Input Form field: reported IC50 of C=C1CC[C@@H](O)[C@]2(C)CC[C@H]3C(=C)C(=O)O[C@@H]3[C@@H]12
## Output 40.2

====

Tested on: promastigotes of Leishmania amazonensis strain (MHOM/BR/77/LTB0016)
Assay overview: alamarBlue activity against promastigotes of L. amazonensis
Type: cell-based
Assay setup: Leishmania amazonensis; 72 h of incubation; mean with standard deviation
Could you please report measured IC50 for the items listed next?

## Input Record request: IC50 value, item C=C1C(=O)O[C@H]2CC(=C)[C@H]3CCC(=C)[C@@H](O3)[C@@H](O)[C@H]12 [Dehydroxyisobadgerin (9), dehydroxyisobadgerin]
## Output 25.5 µM

## Input For C=C1C(=O)O[C@@H]2[C@H]3C(C)=CC[C@@H](O)[C@]3(C)CC[C@@H]12 [Santamarine (12), santamarine] , what is its reported IC50?
## Output > 101 µM

## Input Given C=C1C(=O)O[C@@H]2/C=C(\C)[C@H](O)CC/C(C)=C/[C@H](O)[C@@H]12 [Tatridin A (4), tatridin A] , state its recorded IC50.
## Output > 94.6 µM

## Input What does the data say about its IC50? Entry: C=C1C(=O)O[C@@H]2/C=C(\C)[C@H](O)CC/C(C)=C/[C@H](OC(C)=O)[C@@H]12 [Tatridin A acetate (5), tatridin A acetate]
## Output > 81.6 µM

## Input Given the entry C=C1C(=O)O[C@H]2CC(=C)[C@H]3CC[C@@](C)(O)[C@@H](O3)[C@@H](O)[C@H]12 [Isobadgerin (8), isobadgerin] , report its measured IC50.
## Output > 89.2 µM

## Input Data request, read-out IC50, for C=C1C(=O)O[C@@H]2[C@@H]3[C@@](C)(CC[C@@H]12)[C@H](O)CC[C@]3(C)O [4b-Hydroxyarbusculin A (11), 4β-hydroxyarbusculin A]
## Output 76.4 µM

====

System: promastigotes of Leishmania donovani strain (MHOM/IN/90/GE1F8R)
Assay overview: alamarBlue activity against promastigotes of L. donovani
Format: cell-based
Assay setup: selectivity index CC50/IC50 (macrophages J744A.1 vs parasite)
Kindly supply the reported Promastigotes L. donovani SI values for the records listed here.

## Input Reported Promastigotes L. donovani SI, compound C=C1C(=O)O[C@H]2CC(=C)[C@@H](O)CC/C(C)=C/[C@@H](O)[C@H]12 : ____
## Output <1.05

## Input For the compound shown here, C=C1CC[C@@H](O)[C@]2(C)CC[C@H]3C(=C)C(=O)O[C@@H]3[C@@H]12 , give the reported Promastigotes L. donovani SI.
## Output <0.39

## Input Which Promastigotes L. donovani SI reading was recorded for the compound C=C1C(=O)O[C@@H]2/C=C(\C)[C@H](O)CC/C(C)=C/[C@H](OC(C)=O)[C@@H]12 [Tatridin A acetate (5), tatridin A acetate] ?
## Output <0.24

## Input What value of Promastigotes L. donovani SI has been reported for the following compound? C=C1CC[C@@H](C(C)C)/C=C/[C@@](C)(O)CC[C@H]1O [Nephthediol (10), (−) nephthediol]
## Output <0.22

## Input Requested field: Promastigotes L. donovani SI. Item: C=C1CCC2C(=C)C(=O)OC2C=C(C)CCC1=O (stereo not shown) [Anhydroartemorin (2), anhydroartemorin]
## Output <1.76

## Input So what does the record say about Promastigotes L. donovani SI for C=C1C(=O)O[C@H]2CC(=C)[C@H]3CC[C@@](C)(O)[C@@H](O3)[C@@H](O)[C@H]12 ?
## Output <1.01

## Input Query (compound): C=C1C(=O)O[C@@H]2/C=C(\C)[C@H](O)CC/C(C)=C/[C@H](O)[C@@H]12 ; field requested: Promastigotes L. donovani SI
## Output <0.34
